- target_or_test_system: T1, His-tagged human CD38 (ACRO Biosystems cat #CD8-H5224) (human, UniProt P28907 43-300)
- T1 construct: bought recombinant protein with His tag
- assay_protocol: ELISA, coated His-CD38

- binder: "40566p1.G9 (scFv, V domains shown, tested as scFv-Fc supernatant) VH: DVQLVESGGGVVRPGESLRLSCAASGFTFDNYDMTWVRQAPGEGLEWVSFISSRGTFTYYADSVKGRFTISRDNSKNTLYLQMNSLRAEDTAIYYCAKDSGEYYFFDYWGLGTLVTVSS VL: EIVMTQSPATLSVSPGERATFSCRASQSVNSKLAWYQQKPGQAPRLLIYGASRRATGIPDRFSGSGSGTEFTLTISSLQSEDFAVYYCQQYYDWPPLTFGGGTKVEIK"
  ELISA 1 ug/ml: 1.82
- binder: "40566p1.C11 (scFv, V domains shown, tested as scFv-Fc supernatant) VH: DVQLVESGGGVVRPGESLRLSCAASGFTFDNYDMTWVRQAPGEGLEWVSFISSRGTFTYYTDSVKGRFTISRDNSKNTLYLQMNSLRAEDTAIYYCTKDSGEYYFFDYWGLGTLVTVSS VL: EIVLTQSPGTLSLSPGERATLSCRASQTVGSKLAWYQQKPGQAPRLLIFSASSRATGIPARFSGSGSGTEFTLTISSLQSEDFAVYYCQQYYDWPPLTFGGGTKVEIK"
  ELISA 1 ug/ml: 1.87
- binder: "40617p1.2.A3 (scFv, V domains shown, tested as scFv-Fc supernatant) VH: EVQLLESGGGLVQPGGSLRLSCAASGFTFSNYWMTWVRQAPGKGLEWVSAISSYGGNYIYYADSVKGRFTISRDNSKDTLYLQMNSLRAEDTAVYYCAKDWDDGMDVWGQGTTVTVSS VL: EIVMTQSPAVLSVSPGERATLSCRASQSVNSKLAWYQQKPGQAPRLLIYGASTRAAGIPDRFSGSGSGTDFTLTISSPQSEDFAVYYCQHYYDLPPYSFGGGTKVEIK"
  ELISA 1 ug/ml: 1.75
